Provide the recorded thallium flux slope for the entries that follow.
# Test description: native HEK Tl+ uptake effects, second counter-screen – HEK cells, counterscreen 2, counter-screen for KCC2 modulator project, confirmation (AID 1718);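 further: run without ouabain in cells lacking the KCC2 cotransporter; slope of fluorescence scaled to its starting value between 10 and 20 s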
# Study conditions: HEK293 parental, thallium flux FluoZin-2 fluorescence slope; at 10 µM
The list shows a part of the results. Inconclusive results are not listed.
One number for each entry.

Your task in this section: give thallium flux slope for each listed record.
1. CN(C)S(=O)(=O)c1cccc(NC(=S)N/N=C/C(=O)c2ccccc2)c1
2. Cc1ccc(C(=O)NC(=S)Nc2ccccc2C)cc1
3. O=C(COC(=O)c1ccc(Oc2ccccc2)cc1)Nc1nnc(-c2ccccc2)o1
4. Cc1ccc(OCC(=O)N2CCN(C(=O)c3cccnc3)CC2)cc1
5. O=C(NNC(=S)NC(=O)c1cn(-c2ccccc2)nc1-c1ccccc1)c1ccncc1

## Result
1. 0.0129
2. 0.0284
3. 0.0346
4. 0.0114
5. 0.0155

---

# Test description: inhibitors of Chlamydomonas gravitaxis, primary screen, whole organism, Chlamydomonas reinhardtii, WT vs cilia-less mutant, absorbance, 96-well (AID 463189);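 further: 0% = wild type cc124 cells in DMSO and 100% = ciliumless bld1 mutant cells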
# Study conditions: OD600 absorbance, 2 days, at 10 µM, stronger effect = higher value
Provide the recorded inhibition for the entries that follow.
Give bare numbers, in %.

                                   compound  test_result
0                      CSc1nnc(C)c(=O)[nH]1            6
1  COCCCNC(=O)C(C#N)c1nc2ccccc2nc1N1CCN(Cc2ccccc2)CC1 (stereo not given)         33.7

Your task in this section: give inhibition for each listed record.
1. CCCOc1ccc(Cc2nn[nH]n2)cc1
2. CSC(=Nc1ccccc1)C1=C(O)COC1=O

## Result
[-6.39, -2.91]

## Task Which inhibition value belongs to `N#Cc1nc(-c2ccc(Cl)cc2)oc1N1CCCCC1` ?
## Result 20

---

# Test description: inhibitors of poly I:C-induced TLR3 signaling, primary screen, cell-based, poly I:C stimulus, luciferase, 10K MLSCN set (AID 602277)
# Study conditions: HEK293-TLR3 RL24 IRF3 luciferase reporter, at 10 µM, stronger effect = higher value
Measure: inhibition (%)
Answers are plain numbers, in %.

>>> print(df.to_string())
                                   compound  test_result
0  Cc1cc(C)n(CC(=O)n2c3c(c4ccccc42)CCCC3)n1         1.75

Your task in this section: give inhibition for each listed record.
1. COCCOC(=O)C1=C(C)NC(C)=C(C(=O)OC(C)C)C1c1cccc([N+](=O)[O-])c1 (configuration not stated)
2. COc1ccccc1Nc1ncnc2c1cnn2-c1cccc(C)c1
3. O=C(O)CC1Sc2nc3ccccc3n2C1=O (configuration not stated)
4. COc1ccc(C2/C(=C(/O)c3ccccc3)C(=O)C(=O)N2c2ncccn2)cc1OC (configuration not stated)

## Result
25.9
-52.1
12.9
3.83

Your task in this section: give inhibition for each listed record.
1. C=CCNc1nnc(SC2CC(=O)N(c3ccc(OC)cc3)C2=O)s1 (configuration not stated)
2. O=C(CCCN1C(=O)c2ccccc2C1=O)N1CCC(c2ccccc2)C1 (configuration not stated)
3. CCN(CC)CCN1C(=O)C(O)=C(C(=O)c2cccs2)C1c1ccccn1 (configuration not stated)
4. CCCC(=O)N1c2ccccc2NC2=C(C(=O)CCC2)C1c1ccc(F)cc1 (configuration not stated)
5. c1cncc(-c2nnc3sc(-c4ccco4)nn23)c1

## Result
[-1.97, -11.3, 12, 23.4, -2.28]

---

# Test description: DUSP6 inhibitors restoring Erk phosphorylation by chemical complementation, primary imaging in DUSP6-transfected HeLa (AID 609)
# Study conditions: HeLa MKP-3 transfected, phospho-Erk imaging KS statistic; measured here: cell density z-score; at 10 µM; cells stimulated with TPA for 15 min
Measure: z-score
Answers are plain numbers.

Look over these answered cases.
In [3]: df
Out[3]:
                                   molecule  test_result
0  CN1C(=O)N(c2ccccc2)C(Nc2nncs2)C1(C)C (centres undefined)       -0.342
1  COc1cccc(-c2nnc3sc(-c4ccc(Cl)cc4)nn23)c1        0.426
2  CO[C@@]1(NC(=O)CSCC#N)C(=O)N2C(C(=O)O)=C(CSc3nnnn3C)CS[C@@H]21         0.71

--- query ---
## Task Which z-score value belongs to `CSc1nnc(C)c(=O)[nH]1` ?
## Result 0.361

---

# Test description: DUSP6 inhibitors restoring Erk phosphorylation by chemical complementation, primary imaging in DUSP6-transfected HeLa (AID 609)
# Study conditions: HeLa MKP-3 transfected, phospho-Erk imaging KS statistic; measured here: nuclear c-Myc green intensity z-score; at 10 µM; cells stimulated with TPA for 15 min
Record true (1) whenever z-score is at -0.5 or higher; record false (0) when lower.

Worked examples, 5 molecules total:
                                   molecule  answer_label
0  CCc1cn([C@H]2C[C@H](O)[C@@H](CO)O2)c(=O)[nH]c1=O      true (1)
1  CCC1(C)Cc2c(sc3nc4n(c(=O)c23)CCS4)CO1 (centres undefined)      true (1)
2  CCCCNC(=O)c1c(N)n(/N=C/c2cccnc2)c2nc3ccccc3nc12      true (1)
3  Cc1csc(NC(=O)CSc2nsc(SCC(=O)Nc3nc(C)cs3)c2C#N)n1      true (1)
4              Cc1cc(OCCN2CCCCC2)nc2ccccc12     false (0)

## Task Decide: is the reported value of z-score for `Cn1ncc(N=Cc2ccccc2)c1C(N)=O` equal to or greater than -0.5?
## Result true (1)

## Task Decide: is the reported value of z-score for `CCOC(=O)Cn1c(SC)nc2sc3c(c2c1=O)CC(C)(C)OC3` equal to or greater than -0.5?
## Result false (0)

## Task Decide: is the reported value of z-score for `Cc1noc(NS(=O)(=O)c2ccc(NC(=O)COc3ccccc3)cc2)c1C` equal to or greater than -0.5?
## Result true (1)

---

Provide the recorded thallium flux slope for the entries that follow.
# Test description: native HEK Tl+ uptake effects, second counter-screen – HEK cells, counterscreen 2, counter-screen for KCC2 modulator project, confirmation (AID 1718);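 further: run without ouabain in cells lacking the KCC2 cotransporter; slope of fluorescence scaled to its starting value between 10 and 20 s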
# Study conditions: HEK293 parental, thallium flux FluoZin-2 fluorescence slope; at 10 µM
The other results are listed elsewhere or left out. Records with an inconclusive call do not appear.
One number for each entry.

In [3]: df
Out[3]:
                                   compound  test_result
0     Cc1c(C(=O)NC(=S)NCc2cccnc2)oc2ccccc12       0.0284
1  NS(=O)(=O)c1ccc(NC(=S)NC(=O)c2cccnc2)cc1       0.0122
2                CCNCc1cc2cc(C)ccc2[nH]c1=O       0.0111
3  Cc1ccc(-c2noc(CN3CCN(Cc4ccccc4)CC3)n2)cc1       0.0101
4  CCn1c(SCC(=O)c2ccc3ccccc3c2)nnc1-c1cccs1       0.0101

Your task in this section: give thallium flux slope for each listed record.
1. COc1cccc(NC(=S)NC(=O)c2c(Cl)c(C)nn2C)c1
2. COc1ccc2[nH]c(=S)cc(C)c2c1

## Result
1: 0.0309; 2: 0.0122

Your task in this section: give thallium flux slope for each listed record.
1. Cc1oc(C(N)=O)cc1COc1ccc(C(N)=O)cc1
2. O=C(N/N=C/c1coc2ccccc2c1=O)c1cc2ccccc2o1
3. COc1cc(NC(=O)c2ccccc2NS(=O)(=O)c2ccc(Cl)s2)cc(OC)c1
4. COc1ccc(-c2cn(-c3ccc(OC)cc3)c(=S)[nH]2)cc1
5. O=C1/C(=C\c2ccsc2)NC(=S)N1c1ccccc1
6. CC(C)n1cnc2c(Nc3cccc(Cl)c3)nc(N(CCO)CCCO)nc21
7. Cc1cc(C)c2cc(CN(Cc3cccs3)Cc3nnnn3CC3CCCO3)c(=O)[nH]c2c1 (stereo unspecified)

## Result
[0.0116, 0.0106, 0.0111, 0.0135, 0.024, 0.0113, 0.00821]

Your task in this section: give thallium flux slope for each listed record.
1. CCOc1ccccc1C1CC(c2ccc(Cl)cc2)Nc2nc(N)nn21 (stereo unspecified)
2. CN(C)c1nc(=Nc2cccc(Cl)c2)ss1

## Result
[0.00975, 0.0487]

---

# Test description: inhibitors of TNFa-induced NFkB p65 translocation, primary screen, imaging, HUVEC, MLSMR starter and 10KST1 sets (AID 438);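 further: compound added about 3h40 before a 20 min TNFalpha stimulation; signal is the nuclear over cytoplasmic p65 intensity ratio per well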
# Study conditions: HUVEC TNFa-induced p65 nuclear translocation; at 2 µM, stronger effect = higher value, 0% TNFa-plus-vehicle, 100% no-TNFa wells
Provide the recorded inhibition for the entries that follow.
Give bare numbers, in %.

Look over these answered cases.
>>> print(df.to_string())
                                   compound  uom  test_result
0    CC(NC(=O)NCCCC(=O)O)(C(F)(F)F)C(F)(F)F    %         -3.7
1  C[C@@H]1C[C@H]2[C@@H]3C[C@H](F)C4=CC(=O)C=C[C@]4(C)[C@@]3(F)[C@@H](O)C[C@]2(C)[C@@]1(O)C(=O)CO    %         -3.8

Your task in this section: give inhibition for each listed record.
1. CSc1nc(O)c(Cc2ccccc2)c(=O)[nH]1
2. CCCC(CCC)C(=O)OC1C[C@H]2CC[C@@H](C1)[N+]2(C)C (stereo not given in full)
3. Cc1ccccc1OCC(O)Cn1c(N2CCN(c3ccccc3)CC2)nc2c1c(=O)[nH]c(=O)n2C (stereo not given)
4. COc1cc(C2C(C#N)=C(N)Oc3cc(C)n(CCc4ccccc4)c(=O)c32)cc2c1OCO2 (stereo not given)
5. CC(=O)OC12CC3CC(C1)C(=NO)C(C3)C2

## Result
5.9
-4.2
-0.6
-2.4
-10.2
